# study_target: HIV-1 RT K103N/V108I (Human immunodeficiency virus type 1 group M subtype B, UniProt P03366, K702N/V707I)
# Construct: an HIV RT clone pKRT2 containing only the RT p66 gene regulated by the lac operon/trc promoter
# method: Reverse transcriptase (RT) assay, K103N/V108I mutant
readout_label: pIC50
In simple prose, pIC50 is minus the logarithm base ten of a concentration in moles per litre.

CCN1c2ncc(CCOc3cccc4ncccc34)cc2C(=O)Nc2c(C)cc(Cl)nc21 7.42
CCN1c2ncc(CCOc3ccnc4ccccc34)cc2C(=O)N(C)c2ccc(F)nc21 7.49

Now examine the next entry.
stdin: Give the value of pIC50 reported for the following: `Cc1ccnc2c1NC(=O)c1cc(CCOc3ccnc4ccccc34)cnc1N2C1CC1`
stdout: 7.33

Entry source: patent US20020028807A1
